Sourced from patent US20240174662A1

target: UniProt:Q9H0K1; test: SIK2 Enzymatic Assay Version 2 (High ATP); assay type: biochemical; conditions: 3 mM ATP and 200 μM HDAC5tide final, ADP-Glo Max luminescence
measured.endpoint: IC50 (nM)

1. Cc1onc(OC[C@@H](N)c2ccccn2)c1-c1ccn2nc(NC(=O)C3CC3)cc2c1 [Example 223]
2. CCN1CC[C@@H]1COc1cnn(C)c1-c1ccn2nc(Nc3ccnc(OC)n3)cc2c1 [Example 163]
3. COc1nnc(Nc2cc3cc(-c4c(OC[C@H]5CCN5C)cnn4C)ccn3n2)cc1C [Example 147]
4. Cc1cnc(Nc2cc3cc(-c4c(OC[C@H]5CCN5C)cnn4C)ccn3n2)cn1 [Example 49]
Prompt: Sort the listed entries by IC50, smallest first. # answer = labels listed in requested order
Completion: 3, 2, 4, 1

---

target: SIK2 (Homo sapiens (Human)); experiment: SIK2 Enzymatic Assay Version 2 (High ATP); type: biochemical; conditions: 3 mM ATP and 200 μM HDAC5tide final, ADP-Glo Max luminescence
Sequence (Q9H0K1 whole entry, species assumed): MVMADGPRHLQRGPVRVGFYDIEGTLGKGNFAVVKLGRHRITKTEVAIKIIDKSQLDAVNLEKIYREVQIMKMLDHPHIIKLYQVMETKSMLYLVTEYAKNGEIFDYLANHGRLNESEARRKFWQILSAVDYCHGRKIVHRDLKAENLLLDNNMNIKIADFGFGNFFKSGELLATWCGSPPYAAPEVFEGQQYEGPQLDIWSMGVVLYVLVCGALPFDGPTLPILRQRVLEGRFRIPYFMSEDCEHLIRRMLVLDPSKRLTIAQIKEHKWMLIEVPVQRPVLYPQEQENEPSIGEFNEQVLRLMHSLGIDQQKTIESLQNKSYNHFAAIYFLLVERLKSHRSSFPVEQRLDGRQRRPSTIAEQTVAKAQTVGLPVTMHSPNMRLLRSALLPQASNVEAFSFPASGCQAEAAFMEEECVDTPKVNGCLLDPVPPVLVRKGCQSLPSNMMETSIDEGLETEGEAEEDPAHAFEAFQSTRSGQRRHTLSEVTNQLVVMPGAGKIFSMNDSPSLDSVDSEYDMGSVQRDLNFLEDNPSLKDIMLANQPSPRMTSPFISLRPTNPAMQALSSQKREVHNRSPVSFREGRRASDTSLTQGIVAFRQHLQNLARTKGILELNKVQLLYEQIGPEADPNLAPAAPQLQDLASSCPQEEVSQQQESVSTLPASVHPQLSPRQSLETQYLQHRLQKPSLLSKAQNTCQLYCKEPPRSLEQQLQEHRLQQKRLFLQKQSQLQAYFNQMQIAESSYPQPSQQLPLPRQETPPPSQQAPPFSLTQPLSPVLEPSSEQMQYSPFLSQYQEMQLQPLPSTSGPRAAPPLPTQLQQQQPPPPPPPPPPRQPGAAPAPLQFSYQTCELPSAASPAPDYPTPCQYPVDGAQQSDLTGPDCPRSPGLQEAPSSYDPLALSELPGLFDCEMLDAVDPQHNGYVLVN
measured.endpoint: IC50 (nM)

Prompt: For the compound C[C@H]1CN(C)C[C@H]1OCc1cnn(C)c1-c1ccn2nc(NC(=O)C3CC3)cc2c1 (single isomer, unassigned) , what IC50 is on record?
Completion: 3.5

Prompt: Follow-up entry: Cc1cc(Nc2cc3cc(-c4c(OC[C@@H]5CC(=O)N(C)C5)cnn4C)ccn3n2)nc(C)n1 (single isomer, unassigned)
Completion: 19.2

Prompt: Similarly, `CN1CC[C@H](Oc2cnn(C)c2-c2ccc3nc(NC(=O)C4CC4)cn3c2)C1` ?
Completion: 106

Prompt: Entry `CCN1CC[C@@H]1COc1cnn(C)c1-c1ccn2nc(Nc3ccc(=O)n(C)n3)cc2c1` please
Completion: 0.9

Prompt: Okay, and `CN1CC(OCc2cnn(C)c2-c2ccn3nc(NC(=O)C4CC4)cc3c2)C1` ?
Completion: 53.9

a. Cc1cc(Nc2cc3cc(-c4c(OC[C@H]5CCN5)cnn4C)ccn3n2)nc(C(F)(F)F)n1
b. C[C@H]1CN[C@@H]1COc1cnn(C)c1-c1ccn2nc(NC(=O)C3CC3)cc2c1
Prompt: Could you point out whether the larger IC50 belongs to a or to b ? Return value: the label identifying the chosen record.
Completion: b

---

molecular target: UniProt:Q9H0K1; experiment: SIK2 Enzymatic Assay Version 2 (High ATP); type: biochemical; conditions: 3 mM ATP and 200 μM HDAC5tide final, ADP-Glo Max luminescence
measured.endpoint: IC50 (nM)

Some solved cases for reference:
Prompt: # get_value(readout='IC50', item= Cc1cc(Nc2cc3cc(-c4c(OC[C@H]5CCN5C)cnn4C)ccn3n2)nc(C(=O)NCC(C)(C)O)c1 [Example 113] )
Completion: 22.3

Prompt: Can you handle COC(C)(C)CN1CC[C@@H]1COc1cnn(C)c1-c1ccn2nc(NC(=O)C3CC3)cc2c1 [Example 435] next?
Completion: 79.7

A. Cn1ncc(OCC2(c3ccccc3)CNC2)c1-c1ccn2nc(NC(=O)C3CC3)cc2c1 [Example 44]
B. COCCN1CCC[C@@H]1COc1cnn(C)c1-c1ccn2nc(NC(=O)C3CC3)cc2c1 [Example 428]
C. Cn1ncc(OC[C@@H](N)C(C)(C)O)c1-c1ccn2nc(NC(=O)C3CC3)cc2c1 [Example 426]
D. Cc1onc(O[C@@H]2CCNC[C@H]2F)c1-c1ccn2nc(NC(=O)C3CC3)cc2c1 (single isomer, unassigned) [Example 216]
Prompt: Arrange the 4 compounds by rising IC50, starting with the smallest. List the labels in the requested order.
Completion: A, D, C, B
